Data credit: ChEMBL document CHEMBL1122938

Measured pKi by item
# measurement-notes: Noncompetitive inhibitory activity against Inosine-5'-monophosphate dehydrogenase using NAD as viable substrate
Remember, pKi is on a log scale: it is -log10 of the molar concentration.

## Task Quick one: give measured pKi for NC(=O)c1csc([C@@H]2O[C@H](COP(=O)(O)O)[C@@H](O)[C@H]2O)n1
## Result 3.39

Kindly review the next molecule as well.
## Task Give me measured pKi, please, for this molecule: NC(=O)c1c[se]c([C@@H]2O[C@H](COP(=O)(O)O)[C@@H](O)[C@H]2O)n1
## Result 3.33

---

# measurement-notes: Noncompetitive inhibitory activity against Inosine-5'-monophosphate dehydrogenase using NAD as viable substrate
Overview of reported Ki across a group of compounds:
Numeric only. Scale: nM

Worked set:
## Task Query Ki for NC(=O)c1ncn([C@@H]2O[C@H](COP(=O)(O)O)[C@@H](O)[C@H]2O)n1 [RIBAVIRIN MONOPHOSPHATE]
## Result 2240

## Task Output measured Ki for this item: NC(=O)c1csc([C@H]2O[C@@H](COP(=O)(O)OP(=O)(O)OC[C@H]3O[C@@H](n4cnc5c(N)ncnc54)[C@H](O)[C@@H]3O)[C@H](O)[C@@H]2O)n1
## Result 240

## Task Identify measured Ki associated with NC(=O)c1c[se]c(C2O[C@@H](COP(=O)(O)OP(=O)(O)OC[C@H]3OC(n4cnc5c(N)ncnc54)[C@H](O)[C@@H]3O)[C@H](O)[C@@H]2O)n1 (some centres undefined)
## Result 40

// next item, Ki requested
## Task Identify measured Ki associated with NC(=O)c1ncn(C2O[C@H](COP(=O)(O)OP(=O)(O)OC[C@H]3OC(n4cnc5c(N)ncnc54)[C@H](O)[C@@H]3O)[C@H](O)[C@@H]2O)n1 (some centres undefined)
## Result 235000

---

# measurement-notes: Cytotoxicity against P388 cells in culture
# Format: cell-based
# reported-conditions: mouse, read-out: ID50 (the source's name)
# maps each entry to its log10 of CC50
Hi team, quick reminder: these entries are log10 of CC50 (µM).

See these solved cases before continuing.
## Task Tell me log10 of CC50 reported for NC(=O)c1c[se]c([C@H]2O[C@@H](COP(=O)(O)OP(=O)(O)OC[C@H]3O[C@@H](c4nc(C(N)=O)c[se]4)[C@H](O)[C@@H]3O)[C@H](O)[C@@H]2O)n1
## Result -0.22

## Task Kindly indicate its recorded log10 of CC50. Item: NC(=O)c1csc([C@H]2O[C@@H](COP(=O)(O)OP(=O)(O)OC[C@H]3O[C@@H](c4nc(C(N)=O)cs4)[C@H](O)[C@@H]3O)[C@H](O)[C@@H]2O)n1
## Result 0.66

## Task Answer with reported log10 of CC50 of NC(=O)c1c[se]c(C2O[C@@H](COP(=O)(O)OP(=O)(O)OC[C@H]3OC(n4cnc5c(N)ncnc54)[C@H](O)[C@@H]3O)[C@H](O)[C@@H]2O)n1 (stereo not given in full)
## Result 0.99

## Task Provide one value: measured log10 of CC50 of NC(=O)c1ncn([C@@H]2O[C@H](COP(=O)(O)O)[C@@H](O)[C@H]2O)n1 [RIBAVIRIN MONOPHOSPHATE]
## Result 1.81

## Task For the molecule NC(=O)c1csc([C@H]2O[C@@H](COP(=O)(O)OP(=O)(O)OC[C@H]3O[C@@H](n4cnc5c(N)ncnc54)[C@H](O)[C@@H]3O)[C@H](O)[C@@H]2O)n1 , report log10 of CC50.
## Result 0.88

Further cases:
## Task Tell me log10 of CC50 reported for NC(=O)c1ncn(C2O[C@H](COP(=O)(O)OP(=O)(O)OC[C@H]3OC(n4cnc5c(N)ncnc54)[C@H](O)[C@@H]3O)[C@H](O)[C@@H]2O)c1N (stereo not given in full)
## Result 1.89

## Task Let me know recorded log10 of CC50 for NC(=O)c1c[se]c([C@@H]2O[C@H](COP(=O)(O)O)[C@@H](O)[C@H]2O)n1 , thanks.
## Result 0.15

## Task Using the record for NC(=O)c1ncn(C2O[C@H](COP(=O)(O)OP(=O)(O)OC[C@H]3OC(n4cnc5c(N)ncnc54)[C@H](O)[C@@H]3O)[C@H](O)[C@@H]2O)n1 (stereo not given in full) , state its measured log10 of CC50.
## Result 1.60

## Task Look up and state reported log10 of CC50 for NC(=O)c1csc([C@@H]2O[C@H](COP(=O)(O)O)[C@@H](O)[C@H]2O)n1
## Result 1.00

---

Listing of entries alongside the reported Ki.
# measurement-notes: Uncompetitive (mixed) inhibitory activity against Inosine-5'-monophosphate dehydrogenase using NAD as viable substrate
Unit µM implied. Number only.

## Task Report measured Ki; entry is NC(=O)c1csc([C@H]2O[C@@H](COP(=O)(O)OP(=O)(O)OC[C@H]3O[C@@H](c4nc(C(N)=O)cs4)[C@H](O)[C@@H]3O)[C@H](O)[C@@H]2O)n1
## Result 370

Turning now to a further compound:
## Task Give the reported value of Ki for this record: NC(=O)c1c[se]c([C@H]2O[C@@H](COP(=O)(O)OP(=O)(O)OC[C@H]3O[C@@H](c4nc(C(N)=O)c[se]4)[C@H](O)[C@@H]3O)[C@H](O)[C@@H]2O)n1
## Result 240

---

pKi values for the molecules below.
# measurement-notes: Uncompetitive Inhibitory activity against Inosine-5'-monophosphate dehydrogenase using IMP as viable substrate
Please note pKi is a logarithmic value: minus log10 of concentration in mol/L. Answer with that number alone.

## Task Output pKi of NC(=O)c1csc([C@H]2O[C@@H](COP(=O)(O)OP(=O)(O)OC[C@H]3O[C@@H](n4cnc5c(N)ncnc54)[C@H](O)[C@@H]3O)[C@H](O)[C@@H]2O)n1
## Result 6.89

## Task For the molecule NC(=O)c1csc([C@H]2O[C@@H](COP(=O)(O)OP(=O)(O)OC[C@H]3O[C@@H](c4nc(C(N)=O)cs4)[C@H](O)[C@@H]3O)[C@H](O)[C@@H]2O)n1 , report pKi.
## Result 3.85

## Task Report measured pKi; entry is NC(=O)c1c[se]c([C@H]2O[C@@H](COP(=O)(O)OP(=O)(O)OC[C@H]3O[C@@H](c4nc(C(N)=O)c[se]4)[C@H](O)[C@@H]3O)[C@H](O)[C@@H]2O)n1
## Result 3.72

# ---- query molecule ----
## Task Name the recorded pKi of the molecule listed here: NC(=O)c1c[se]c(C2O[C@@H](COP(=O)(O)OP(=O)(O)OC[C@H]3OC(n4cnc5c(N)ncnc54)[C@H](O)[C@@H]3O)[C@H](O)[C@@H]2O)n1 (some centres undefined)
## Result 7.30

---

# measurement-notes: Competitive Inhibitory activity against Inosine-5'-monophosphate dehydrogenase using IMP as viable substrate
measurement-type: pKi
Would you please state pKi, meaning minus log10 of the concentration in mol/L, as a bare number?

## Task // fetch pKi given entry NC(=O)c1ncn([C@@H]2O[C@H](COP(=O)(O)O)[C@@H](O)[C@H]2O)n1 [RIBAVIRIN MONOPHOSPHATE]
## Result 5.38
